study target: T1, human SLITRK6 extracellular domain linked to his tag (human, UniProt Q9H5Y7 27-608)
T1 construct: extracellular domain; also called huSLITRK6; Hu SLITRK6; not shown: his tag
measurement description: ELISA, coated antigen
A collection of binders and their measured EC50

{"columns": ["binder", "unit text", "EC50"],
 "data": [
  ["hu1H2-13 (antibody, V domains shown) VH: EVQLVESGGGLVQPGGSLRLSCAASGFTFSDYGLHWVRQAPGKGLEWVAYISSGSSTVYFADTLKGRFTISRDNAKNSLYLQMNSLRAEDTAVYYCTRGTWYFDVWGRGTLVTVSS VL: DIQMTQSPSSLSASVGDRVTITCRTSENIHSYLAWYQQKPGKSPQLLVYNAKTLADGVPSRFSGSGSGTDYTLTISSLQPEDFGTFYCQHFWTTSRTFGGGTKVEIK", "nM", 0.07],
  ["phA290 (antibody, V domains shown, From phage display, then full-length construction; Only the variable regions are tied to the name) VH: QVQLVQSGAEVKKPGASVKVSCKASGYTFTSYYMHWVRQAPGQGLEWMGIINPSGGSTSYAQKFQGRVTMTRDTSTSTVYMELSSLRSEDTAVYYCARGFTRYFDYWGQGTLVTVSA VL: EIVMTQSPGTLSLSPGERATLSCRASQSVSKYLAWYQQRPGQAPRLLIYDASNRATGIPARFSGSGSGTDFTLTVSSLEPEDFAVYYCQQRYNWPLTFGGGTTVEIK", "nM", 0.09],
  ["hu14G1-03 (antibody, V domains shown) VH: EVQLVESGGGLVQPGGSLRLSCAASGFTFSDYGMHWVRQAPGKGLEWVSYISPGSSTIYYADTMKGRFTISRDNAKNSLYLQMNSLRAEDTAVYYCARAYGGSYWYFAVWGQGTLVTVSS VL: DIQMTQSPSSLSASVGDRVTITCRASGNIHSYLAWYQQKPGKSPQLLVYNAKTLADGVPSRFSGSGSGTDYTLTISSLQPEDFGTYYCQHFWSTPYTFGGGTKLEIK", "nM", 0.04]
]}

# credit: patent US20250296992A1
